- test.system: human GcgR (Homo sapiens)
- Sequence (P47871 26-477): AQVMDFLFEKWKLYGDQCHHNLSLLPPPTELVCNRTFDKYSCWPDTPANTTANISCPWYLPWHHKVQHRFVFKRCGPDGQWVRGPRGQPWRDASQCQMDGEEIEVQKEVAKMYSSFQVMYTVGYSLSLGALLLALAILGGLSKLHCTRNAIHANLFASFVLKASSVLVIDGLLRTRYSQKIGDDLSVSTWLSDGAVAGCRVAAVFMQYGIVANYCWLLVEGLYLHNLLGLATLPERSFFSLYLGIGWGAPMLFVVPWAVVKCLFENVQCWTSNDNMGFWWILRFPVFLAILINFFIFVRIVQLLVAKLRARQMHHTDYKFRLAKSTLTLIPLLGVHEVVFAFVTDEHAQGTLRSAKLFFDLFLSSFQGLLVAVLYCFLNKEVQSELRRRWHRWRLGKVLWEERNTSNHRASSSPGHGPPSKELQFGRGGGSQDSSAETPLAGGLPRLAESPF
- test: Functional cAMP activity in the presence of 1% HSA
- Assay type: cell-based
- condition: read-out: cAMP Rel EC50, hGcgR
Starred links: 1 amine or outer side, 2 acyl side, 3 side chain; linkers in the order of their positions; H or OH if unused. Non-standard residues stand in square brackets, D forms with d. Groups on a side chain read outwards from the residue. No end group written: not given here. *: point of attachment. C18 diacid = O=C(O)CCCCCCCCCCCCCCCCC(=O)*; γGlu = O=C(O)[C@H](CCC(=O)[*:2])N[*:1]; αMe4Pal = C[C@](N)(Cc1ccncc1)C(=O)O; 4Pal = N[C@@H](Cc1ccncc1)C(=O)O; αMeL = CC(C)C[C@](C)(N)C(=O)O; Orn = NCCC[C@H](N)C(=O)O; AEEA = NCCOCCOCC(=O)O; Aib = CC(C)(N)C(=O)O
The following substances are listed with their measured EC50 values.
Express it in nM; write the number only.

For H-Y[Aib]QGTFTSDFS[Orn][αMeL]LDKK([γGlu-γGlu-C18 diacid])AQ[Aib]AFIEYLLE[Aib]GPSSGAPPPSGS-NH2 [Example 201] , write its EC50.
969

For Y[Aib]QGTFTSDFS[Orn][αMeL]LDKK([AEEA-AEEA-γGlu-C18 diacid])AQ[Aib]AFIEYLLE[dA]GPSSGEPPPSGS-NH2 [Example 155] , write its EC50.
1310

Turning now to a further record.
For H-Y[Aib]QGTFTSD[4Pal]SQ[αMeL]LDKK([AEEA-γGlu-C18 diacid])AQ[αMe4Pal]AFIEYLIE[Aib]GESSGAPPPSGS-NH2 [Example 226] , write its EC50.
763
